# test-description: Pharmacokinetics after oral administration in dogs
# Format: in vivo, beagle dogs
# run-conditions: dog, plasma; male beagle dogs, single oral administration, Mean
parameter-measured: MRT (h)
Express your answer in h, writing the number without its unit.

query: // lookup MRT for CCN1[C@@H](C(=O)NC23CCC(C(=O)O)(CC2)CC3)[C@H](c2cccc(Cl)c2F)[C@]2(C(=O)Nc3cc(Cl)ccc32)C12CCCCC2 [APG-115 hydrate]
result: 31.4
